- TEST_NAME: amyloid nucleation score (Sup35N fusion, yeast selection) (log enrichment); library NNK1; higher = more nucleation; inactive = no reads after selection;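 further: zero at mode of non-aggregating sequences after 7 days selection at 30°C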
Consider the following substances; for each one, report its amyloid nucleation score.
When you answer, write just the number.

Value of measured amyloid nucleation score for the entry MSMKQEEVDGSSW : -0.553

Value of measured amyloid nucleation score for the entry NGRLMVGMLHV : 0.719

Value of measured amyloid nucleation score for the entry VHRRRIRQSAWVRGAVSTFR : -0.011

Value of measured amyloid nucleation score for the entry VQVQVGSFELNSGQRRSVLK : -0.516

Value of measured amyloid nucleation score for the entry SRMGPGNYWANGKSFAARPP : -0.491

Value of measured amyloid nucleation score for the entry GCVSVPYQLPPLISYGLVN : -0.123

Value of measured amyloid nucleation score for the entry LYAVLDILVMFMLMSPP : 0.253

Value of measured amyloid nucleation score for the entry CIRMVRGSTGSTVNMSSRCS : 0.347

Value of measured amyloid nucleation score for the entry ASDLGATKHNLHFIACIFSL : 4.77

Value of measured amyloid nucleation score for the entry DVVICRYSAVIRVFLTLKFK : -0.202

Value of measured amyloid nucleation score for the entry DSSWTWKDVV : 0.397

Value of measured amyloid nucleation score for the entry VVLGCDVMLYRISFPFMIHS : -0.036

Value of measured amyloid nucleation score for the entry LFGEFRNEINAI : 0.031

Value of measured amyloid nucleation score for the entry MFRALVCITVPILHKATNM : -0.689

Value of measured amyloid nucleation score for the entry ILSSGGEKDFNSLYT : -0.105

Value of measured amyloid nucleation score for the entry KNVNAVR : 0.173

Value of measured amyloid nucleation score for the entry IENPVLRCSLYYPSRPIRRL : -0.344

Value of measured amyloid nucleation score for the entry SYLFRSRRIRYFRFMHN : 3.17

Value of measured amyloid nucleation score for the entry FFIDMCEL : -0.897

Value of measured amyloid nucleation score for the entry MSASLWRGNKVDHWHSECYK : -0.661

Value of measured amyloid nucleation score for the entry FLAVIGAPNRCDFGQSMLRM : 3.51

Value of measured amyloid nucleation score for the entry RFFCSD : 0.641

Value of measured amyloid nucleation score for the entry CRSVCGRIS : 0.177

Value of measured amyloid nucleation score for the entry GILKCAYKT : 0.664

Value of measured amyloid nucleation score for the entry MYYVIFNTNSHAN : 4.55

Value of measured amyloid nucleation score for the entry SFYQAYYVACCKYNVEY : 5.96

Value of measured amyloid nucleation score for the entry DMLRMVRYTVWVSRVRSHGW : 3.07

Value of measured amyloid nucleation score for the entry VKSNFLHSGKIGYTSAVGFG : -1.16

Value of measured amyloid nucleation score for the entry NHFGAYVVYGFIEHKKTGMW : 1.82

Value of measured amyloid nucleation score for the entry TNSKSSSVGSKATQHN : 0.077

Value of measured amyloid nucleation score for the entry SFTWFVTAANYKW : 1.8

Value of measured amyloid nucleation score for the entry WNLNKYSFILALDGSYYVLN : 3.23

====

- TEST_NAME: amyloid nucleation score (Sup35N fusion, yeast selection) (log enrichment); library NNK3; higher = more nucleation; inactive = no reads after selection
ATTRIBUTE_MEASURED: amyloid nucleation score

Worked examples, 5 substances total:
[
  {
    "SUBSTANCE": "LSVHTLHNG",
    "amyloid nucleation score": "inactive"
  },
  {
    "SUBSTANCE": "YIRVNTILDLD",
    "amyloid nucleation score": "inactive"
  },
  {
    "SUBSTANCE": "RLGFRCSVLSDMLYVGVLGS",
    "amyloid nucleation score": "inactive"
  },
  {
    "SUBSTANCE": "SLMKPKSVMEAKVIRINLCL",
    "amyloid nucleation score": 0.494
  },
  {
    "SUBSTANCE": "SFSRPCWLYWAGFLSVVYRC",
    "amyloid nucleation score": "inactive"
  }
]

Value of measured amyloid nucleation score for the entry RWNVHCYAMLFDVGLVDARL : inactive

Value of measured amyloid nucleation score for the entry ICYRWY : 0.192

Value of measured amyloid nucleation score for the entry ACMNSSSRSVMLLMCYYFSN : inactive

Value of measured amyloid nucleation score for the entry ISQLIEHRRAESCLRPKGRQ : inactive

Value of measured amyloid nucleation score for the entry LLYQFSELQMASWNNKKKEL : inactive

Value of measured amyloid nucleation score for the entry SFECDRYYFSWDGFMSGLT : inactive

Value of measured amyloid nucleation score for the entry VVLYRIGVLSN : inactive

Value of measured amyloid nucleation score for the entry KVLLWPSWFK : inactive
